B1: WDFY1 (parent)
chain: FWNIKQMWDTKTLGLRQHHCRKCG

Variants of: B1
Assay: protein stability index of a GFP-peptide fusion (GPS, HEK-293T) (PSI 1-6); higher = more stable;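 further: lentivirally expressed fusions sorted by FACS into six bins by GFP to DsRed ratio, PSI derived from sequencing read proportions per bin multiplied by bin number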
Conditions: c terminus: a fixed tail appended
reported_endpoint: protein stability index

N3W : 2.85
T12Y : 2.72
C20L : 2.23
G24S : 2.1
N3V : 1.27
G14L : 2.54
T12F : 2.11
T10D : 2.56
W8Y : 2.6
K22F : 3.26
D9N : 1.77
